Assay: Metabolic stability in rat liver microsomes assessed as parent compound remaining at 0.5 uM after 60 mins in presence of NADPH by LC/MS/MS analysis
Type: ADME, Microsome
Details: liver microsomes, read-out: Stability
quantity name: remaining at 1 h, 0.5 µM (%)

smiles repr: Cc1cc(C(=O)O)c2c(C(C)C)nn(-c3ccc(Cl)cc3)c2n1
quantity name: remaining at 1 h, 0.5 µM
quantitative readout: 87

---

Molecular target: Peroxisome proliferator-activated receptor alpha (Rattus norvegicus, UniProt P37230)
Sequence (P37230 whole entry, the tested form may be a part): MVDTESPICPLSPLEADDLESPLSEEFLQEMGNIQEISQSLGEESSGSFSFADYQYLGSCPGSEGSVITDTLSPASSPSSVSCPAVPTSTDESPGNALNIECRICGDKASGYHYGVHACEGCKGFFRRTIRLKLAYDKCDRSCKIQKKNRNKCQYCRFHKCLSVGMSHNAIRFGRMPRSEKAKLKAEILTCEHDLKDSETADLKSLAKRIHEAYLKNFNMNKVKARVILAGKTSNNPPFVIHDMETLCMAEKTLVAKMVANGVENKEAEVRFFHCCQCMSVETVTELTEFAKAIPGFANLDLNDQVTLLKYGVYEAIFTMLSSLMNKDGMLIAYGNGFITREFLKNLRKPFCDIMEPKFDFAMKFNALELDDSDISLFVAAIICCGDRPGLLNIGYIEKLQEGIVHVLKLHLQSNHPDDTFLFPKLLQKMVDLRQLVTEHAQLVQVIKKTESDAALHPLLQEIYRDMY
Test: Transactivation of rat GAL4-fused PPARalpha expressed in human HepG2 cells after 24 hrs by dual renilla-luciferase reporter gene assay

smiles repr: Cc1cc(C(=O)O)c2c(C(C)C)nn(-c3ccc(Cl)cc3)c2n1
EC50 (µM): 15.9

---

Target: Peroxisome proliferator-activated receptor alpha (Homo sapiens) (UniProt Q07869)
Sequence (Q07869 whole entry, the tested form may be a part): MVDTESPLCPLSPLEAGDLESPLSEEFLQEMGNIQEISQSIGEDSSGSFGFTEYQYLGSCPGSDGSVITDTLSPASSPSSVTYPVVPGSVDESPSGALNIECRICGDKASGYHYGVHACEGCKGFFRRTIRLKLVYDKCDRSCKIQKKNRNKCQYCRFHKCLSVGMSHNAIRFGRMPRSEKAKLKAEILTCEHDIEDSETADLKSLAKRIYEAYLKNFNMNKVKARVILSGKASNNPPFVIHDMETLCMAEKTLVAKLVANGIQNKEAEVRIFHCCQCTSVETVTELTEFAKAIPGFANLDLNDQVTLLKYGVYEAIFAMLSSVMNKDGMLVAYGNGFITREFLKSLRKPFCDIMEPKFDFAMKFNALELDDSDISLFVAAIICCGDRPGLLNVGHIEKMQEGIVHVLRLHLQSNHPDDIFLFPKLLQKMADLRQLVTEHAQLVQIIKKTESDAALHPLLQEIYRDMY
Assay: Transactivation of human GAL4-fused PPARalpha LBD expressed in human HepG2 cells at 1 uM after 24 hrs by dual renilla-luciferase reporter gene assay relative to fenofibrate
Format: cell-based

compound: CCC(C)c1nn(-c2ccc(Cl)cc2)c2nc(C3CC3)cc(C(=O)O)c12 (stereo not given)
system under test: Peroxisome proliferator-activated receptor alpha (Homo sapiens) (UniProt Q07869)
activation relative to fenofibrate: 224
//
compound: O=C(O)c1cc(C2CC2)nc2c1c(C1CCC1)nn2-c1ccc(Cl)cc1
system under test: Peroxisome proliferator-activated receptor alpha (Homo sapiens) (UniProt Q07869)
activation relative to fenofibrate: 88.3
//
compound: Cc1cc(C(=O)O)c2c(C(C)(C)C)nn(-c3ccc(Cl)cc3)c2n1
system under test: Peroxisome proliferator-activated receptor alpha (Homo sapiens) (UniProt Q07869)
activation relative to fenofibrate: 2.26
//
compound: Cc1cc(C(=O)O)c2c(C(C)C)nn(-c3cccc(OCc4ccccc4)c3)c2n1
system under test: Peroxisome proliferator-activated receptor alpha (Homo sapiens) (UniProt Q07869)
activation relative to fenofibrate: 47.4
//
compound: CC(C)c1nn(-c2ccc(Cl)cc2)c2nc(C3CC3)cc(C(=O)O)c12
system under test: Peroxisome proliferator-activated receptor alpha (Homo sapiens) (UniProt Q07869)
activation relative to fenofibrate: 114
//
compound: Cc1cc(C(=O)O)c2c(C(C)C)nn(-c3cccc(Cl)c3)c2n1
system under test: Peroxisome proliferator-activated receptor alpha (Homo sapiens) (UniProt Q07869)
activation relative to fenofibrate: 96.7
//
compound: CCc1cc(C(=O)O)c2c(C3CCCC3)nn(-c3ccc(Cl)cc3)c2n1
system under test: Peroxisome proliferator-activated receptor alpha (Homo sapiens) (UniProt Q07869)
activation relative to fenofibrate: 78.2
//
compound: CC(C)c1nn(-c2ccc(Br)cc2)c2nc(C3CC3)cc(C(=O)O)c12
system under test: Peroxisome proliferator-activated receptor alpha (Homo sapiens) (UniProt Q07869)
activation relative to fenofibrate: 199
//
compound: Cc1cc(C(=O)O)c2c(C(C)C)nn(-c3ccc(I)cc3)c2n1
system under test: Peroxisome proliferator-activated receptor alpha (Homo sapiens) (UniProt Q07869)
activation relative to fenofibrate: 111
//
compound: CCc1cc(C(=O)O)c2c(C(C)C)nn(-c3ccc(Cl)cc3)c2n1
system under test: Peroxisome proliferator-activated receptor alpha (Homo sapiens) (UniProt Q07869)
activation relative to fenofibrate: 196

---

Molecular target: Peroxisome proliferator-activated receptor alpha (Homo sapiens)
Sequence (Q07869 whole entry, the tested form may be a part): as above
Assay: Transactivation of human GAL4-fused PPARalpha LBD expressed in human HepG2 cells after 24 hrs by renilla luciferase reporter gene assay
quantity name: EC50 (nM)

compound: CCC(CC)c1nn(-c2ccc(Cl)cc2)c2nc(C)cc(C(=O)O)c12
system under test: Peroxisome proliferator-activated receptor alpha (Homo sapiens)
censor symbol: >
quantitative readout: 3570
//
compound: CCC(C)c1nn(-c2ccc(Cl)cc2)c2nc(C3CC3)cc(C(=O)O)c12 (stereo not drawn)
system under test: Peroxisome proliferator-activated receptor alpha (Homo sapiens)
censor symbol: =
quantitative readout: 460
//
compound: Cc1cc(C(=O)O)c2c(C(C)C)nn(-c3ccc(F)cc3)c2n1
system under test: Peroxisome proliferator-activated receptor alpha (Homo sapiens)
censor symbol: =
quantitative readout: 2060
//
compound: CCc1cc(C(=O)O)c2c(C(C)C)nn(-c3ccc(Br)cc3)c2n1
system under test: Peroxisome proliferator-activated receptor alpha (Homo sapiens)
censor symbol: =
quantitative readout: 1230
//
compound: CC(C)c1nn(-c2cccc(Cl)c2)c2nc(C3CC3)cc(C(=O)O)c12
system under test: Peroxisome proliferator-activated receptor alpha (Homo sapiens)
censor symbol: >
quantitative readout: 1340
//
compound: CCc1cc(C(=O)O)c2c(C(C)C)nn(-c3ccc(I)cc3)c2n1
system under test: Peroxisome proliferator-activated receptor alpha (Homo sapiens)
censor symbol: =
quantitative readout: 1760
//
compound: CCc1cc(C(=O)O)c2c(C(C)C)nn(-c3ccc(Cl)cc3)c2n1
system under test: Peroxisome proliferator-activated receptor alpha (Homo sapiens)
censor symbol: =
quantitative readout: 1390
//
compound: Cc1cc(C(=O)O)c2c(C(C)C)nn(-c3ccc(I)cc3)c2n1
system under test: Peroxisome proliferator-activated receptor alpha (Homo sapiens)
censor symbol: =
quantitative readout: 2410
//
compound: Cc1cc(C(=O)O)c2c(C(C)C)nn(-c3ccc(Cl)cc3)c2n1
system under test: Peroxisome proliferator-activated receptor alpha (Homo sapiens)
censor symbol: =
quantitative readout: 660
//
compound: CC(C)c1nn(-c2ccc(Cl)cc2)c2nc(-c3ccccc3)cc(C(=O)O)c12
system under test: Peroxisome proliferator-activated receptor alpha (Homo sapiens)
censor symbol: =
quantitative readout: 1800
//
compound: CCc1cc(C(=O)O)c2c(C(C)C)nn(-c3cccc(Cl)c3)c2n1
system under test: Peroxisome proliferator-activated receptor alpha (Homo sapiens)
censor symbol: >
quantitative readout: 2270
//
compound: CC(C)c1nn(-c2ccc(Br)cc2)c2nc(C3CC3)cc(C(=O)O)c12
system under test: Peroxisome proliferator-activated receptor alpha (Homo sapiens)
censor symbol: =
quantitative readout: 1980
//
compound: CC(C)c1nn(-c2ccc(Cl)cc2)c2nc(C3CC3)cc(C(=O)O)c12
system under test: Peroxisome proliferator-activated receptor alpha (Homo sapiens)
censor symbol: >
quantitative readout: 2740
//
compound: CCC(C)c1nn(-c2ccc(Cl)cc2)c2nc(C)cc(C(=O)O)c12 (stereo not drawn)
system under test: Peroxisome proliferator-activated receptor alpha (Homo sapiens)
censor symbol: =
quantitative readout: 680
//
compound: CCc1cc(C(=O)O)c2c(C(CC)CC)nn(-c3ccc(Cl)cc3)c2n1
system under test: Peroxisome proliferator-activated receptor alpha (Homo sapiens)
censor symbol: =
quantitative readout: 1240
//
compound: Cc1cc(C(=O)O)c2c(C(C)C)nn(-c3ccc(Br)cc3)c2n1
system under test: Peroxisome proliferator-activated receptor alpha (Homo sapiens)
censor symbol: >
quantitative readout: 4010
//
compound: CCc1cc(C(=O)O)c2c(C(CC)CC)nn(-c3ccc(F)cc3)c2n1
system under test: Peroxisome proliferator-activated receptor alpha (Homo sapiens)
censor symbol: =
quantitative readout: 1530
//
compound: CCC(CC)c1nn(-c2ccc(F)cc2)c2nc(C)cc(C(=O)O)c12
system under test: Peroxisome proliferator-activated receptor alpha (Homo sapiens)
censor symbol: =
quantitative readout: 1450

Sourced from ChEMBL document CHEMBL4385646
